Cited source for all entries: patent US20110239316A1

biological target: C-Met-Rluc (R. reniformis, UniProt P08581 25-1390); test: cell-based or functional assay
Sequence (P08581 25-1390): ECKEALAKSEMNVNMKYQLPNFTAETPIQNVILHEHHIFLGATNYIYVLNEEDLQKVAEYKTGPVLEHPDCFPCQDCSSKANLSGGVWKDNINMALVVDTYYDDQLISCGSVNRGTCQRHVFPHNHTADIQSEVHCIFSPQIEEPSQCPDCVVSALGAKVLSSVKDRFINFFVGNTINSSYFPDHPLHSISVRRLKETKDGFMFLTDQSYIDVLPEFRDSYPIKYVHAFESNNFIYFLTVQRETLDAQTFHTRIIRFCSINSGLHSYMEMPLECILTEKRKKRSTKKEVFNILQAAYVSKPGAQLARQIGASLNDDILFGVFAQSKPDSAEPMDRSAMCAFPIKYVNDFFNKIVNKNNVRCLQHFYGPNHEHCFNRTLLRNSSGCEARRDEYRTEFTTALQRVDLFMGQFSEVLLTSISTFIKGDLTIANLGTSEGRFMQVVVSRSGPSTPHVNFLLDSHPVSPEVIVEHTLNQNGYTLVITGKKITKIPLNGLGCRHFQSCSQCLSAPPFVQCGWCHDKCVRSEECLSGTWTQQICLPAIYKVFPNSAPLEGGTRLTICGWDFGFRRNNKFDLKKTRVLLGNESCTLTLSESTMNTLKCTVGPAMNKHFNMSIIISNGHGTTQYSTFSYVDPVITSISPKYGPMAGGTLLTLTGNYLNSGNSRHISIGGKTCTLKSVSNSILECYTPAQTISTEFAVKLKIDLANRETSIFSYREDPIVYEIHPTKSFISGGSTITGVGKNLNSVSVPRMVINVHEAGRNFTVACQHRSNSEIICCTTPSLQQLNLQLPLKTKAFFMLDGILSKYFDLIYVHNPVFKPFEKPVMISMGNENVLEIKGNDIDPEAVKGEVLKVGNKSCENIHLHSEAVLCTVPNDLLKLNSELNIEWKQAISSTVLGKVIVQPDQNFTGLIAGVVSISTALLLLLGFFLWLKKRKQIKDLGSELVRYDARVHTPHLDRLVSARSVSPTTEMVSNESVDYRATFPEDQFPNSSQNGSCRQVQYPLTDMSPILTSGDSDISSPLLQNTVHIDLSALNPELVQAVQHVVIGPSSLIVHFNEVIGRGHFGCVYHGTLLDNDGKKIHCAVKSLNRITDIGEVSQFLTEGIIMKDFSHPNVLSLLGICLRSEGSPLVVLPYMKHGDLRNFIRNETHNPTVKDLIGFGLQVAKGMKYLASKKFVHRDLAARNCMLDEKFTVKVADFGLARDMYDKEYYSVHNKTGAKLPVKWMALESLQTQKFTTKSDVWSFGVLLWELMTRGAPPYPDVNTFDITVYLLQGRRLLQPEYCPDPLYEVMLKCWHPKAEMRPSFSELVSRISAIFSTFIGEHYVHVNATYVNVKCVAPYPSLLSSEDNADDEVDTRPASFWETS
measurement kind: inhibition of HGF induced BRET signal, c-Met dimerization model (%)
Give your result in % as a bare value.

Provide one value: measured inhibition of HGF induced BRET signal, c-Met dimerization model of [224G11] [TH7 Hz1] (antibody, human IgG1, V domains shown) VH: QVQLVQSGAEVKKPGASVKVSCKASGYIFTAYTMHWVRQAPGQGLEWMGWIKPNNGLANYAQKFQGRVTMTRDTSISTAYMELSRLRSDDTAVYYCARSEITTEFDYWGQGTLVTVSS VL: DIVLTQSPDSLAVSLGERATINCKSSESVDSYANSFMHWYQQKPGQPPKLLIYRASTRESGVPDRFSGSGSRTDFTLTISSLQAEDVAVYYCQQSKEDPLTFGGGTKVEIKR
52.2
